Measured values drawn from PubChem BioAssay (NCATS) for this set.

- protocol: Cell Viability - SH-SY5Y (AID 544);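 note: cells exposed to compound for 40 hours; 0% = DMSO alone and -100% = 100 µM tamoxifen; nearly all actives have a fitted effect of over 55% in size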
- testContext: SH-SY5Y neuroblastoma cell viability; at 92.2 µM (top of the series)
Results filed as inconclusive are left out. Calls of active or inactive are those of the source. Calls come from the whole dose curve; as a rule, active = well fitted cell-killing curve with a large enough effect; inconclusive = small, poorly fitted or top-dose-only effect; inactive = flat fitted curve, though single readings scatter.
Would you mind telling me the reported viability change, negative = cytotoxic of each entry?

Query block: So what's the measured viability change, negative = cytotoxic for this one? CC(=O)Nc1ccccc1
Result block: -26.9% (inactive)

Query block: What about this compound? CCCCCC(N)=O
Result block: -5.16% (inactive)

Query block: What about this compound? CC(=O)OCC(COC(C)=O)OC(C)=O
Result block: 13.4% (inactive)

Query block: What about this compound? Cc1cc(=O)[nH]c(=S)[nH]1
Result block: -4.62% (inactive)

Query block: What about this compound? CC1CC(OC(=O)c2ccccc2O)CC(C)(C)C1 (centres undefined)
Result block: -0.877% (inactive)

Query block: What about this compound? CCCC(O)C(CC)CO (centres undefined)
Result block: -7.87% (inactive)

Query block: What about this compound? C=CCNC(N)=S
Result block: -6.07% (inactive)

Query block: What about this compound? CC(=O)Nc1cccc(O)c1
Result block: 15.1% (inactive)

Query block: What about this compound? COc1ccc(O)cc1
Result block: 4.2% (inactive)

Query block: What about this compound? FC(F)(F)C(Cl)Br (centres undefined)
Result block: -0.71% (inactive)

Query block: What about this compound? CC(=O)Nc1ccc(C(=O)O)cc1
Result block: -7.67% (inactive)

Query block: What about this compound? Cc1c(N(C)C)c(=O)n(-c2ccccc2)n1C
Result block: -14.6% (inactive)

Query block: What about this compound? O=C(O)CCCCC1CCSS1 (centres undefined)
Result block: -17.1% (inactive)

Query block: What about this compound? CCN(CC)C(=O)c1cccc(C)c1
Result block: -22.4% (inactive)
